Measurement Protocol: melting temperature; fluorescence melt of hairpins on a sequencing array, two-state fit, raised by 9.35 °C to match UV melts
Assay Setup: sodium 0.088 M
Please provide measured Tm for the entries that follow.
Field: numeric (°C). Do not append units.

What Tm value was documented for this sequence, GATCGTTACACGATC ((((((...)))))) ? 58.4

What Tm value was documented for this sequence, GATCAAAGCATTGATC ((((((....)))))) ? 43.7

What Tm value was documented for this sequence, GACCACACGAAAGTGGTC (((..(((....)))))) ? 57

What Tm value was documented for this sequence, GCACTGCGAAAGCAAGGC ((..(((....)))..)) ? 47.5

What Tm value was documented for this sequence, AACCGGAAACGGTT (((((....))))) ? 50

What Tm value was documented for this sequence, GGTCAGGGAAACTTGACC (((((.(....).))))) ? 49.5

What Tm value was documented for this sequence, GCCGACGAAAGTCAGGC ((((((....))).))) ? 64.1

What Tm value was documented for this sequence, GCCGTCGGAAACGACAGC ((.((((....)))).)) ? 53

What Tm value was documented for this sequence, GCACGCGAAAGCGACTGC ((((((....)))..))) ? 43.8

What Tm value was documented for this sequence, GATCGGATAGCCGATC ((((((....)))))) ? 55.4

What Tm value was documented for this sequence, GGACACGGAAACGTATCC (((.(((....))).))) ? 40.9

What Tm value was documented for this sequence, GCCTTGCGAAAGCCAGGC ((((.((....)).)))) ? 62.6

What Tm value was documented for this sequence, ACCTAGAAATAGGT (((((....))))) ? 36.8

What Tm value was documented for this sequence, CGGGCGGAAACGCAACCG ((((((....)))..))) ? 49.7

What Tm value was documented for this sequence, GGAAGCGAAAGCTTTTCC ((((((....)))..))) ? 33.4

What Tm value was documented for this sequence, GGCGTTGGAAACAGCGTC (.((.((....)).)).) ? 44.6

What Tm value was documented for this sequence, GCGTTGAAACGC ((((....)))) ? 53.5

What Tm value was documented for this sequence, GCGAGCCCGAAAGGGCGC (((..(((....)))))) ? 55.8

What Tm value was documented for this sequence, GATCAGGAGTCTGATC ((((((....)))))) ? 48.2

What Tm value was documented for this sequence, CGCGGACAGTTCCGCG ((((((....)))))) ? 66.6

What Tm value was documented for this sequence, GGTGAGACGAAAGTCACC (((..(((....)))))) ? 46.8

What Tm value was documented for this sequence, GTCGTAGCGAAAGCTGAC (((..(((....)))))) ? 46.3

What Tm value was documented for this sequence, GTAAGACCGAAAGGTTAC (((..(((....)))))) ? 30.3

What Tm value was documented for this sequence, GGTTTGGCGAAAGCCACC (((..(((....)))))) ? 31.9

What Tm value was documented for this sequence, GCAGTCGGAAACGGTTGC (((..((....))..))) ? 42.4

What Tm value was documented for this sequence, GATCGACGTCTCGATC ((((((....)))))) ? 50

What Tm value was documented for this sequence, GATCCTGACAAGGATC ((((((....)))))) ? 63

What Tm value was documented for this sequence, GACGCCCGAAAGGGAGTC (((.(((....))).))) ? 66.7

What Tm value was documented for this sequence, GAATAACGAAAGTTTTTC (((.(((....))).))) ? 32

What Tm value was documented for this sequence, GCGCCGGGAAACCGGCAC (.(((((....))))).) ? 53.4

What Tm value was documented for this sequence, GTATGCGAAAGCAGTTAC ((((((....)))..))) ? 28.2

What Tm value was documented for this sequence, GCCGTAGGAAACTGCGGC ((((.((....)).)))) ? 61.6

What Tm value was documented for this sequence, GGAATGGGAAACTGTTCC ((((..(....)..)))) ? 35

What Tm value was documented for this sequence, GGCTCCGAAAGGAATGCC ((((((....)))..))) ? 51.3

What Tm value was documented for this sequence, GCCCGCGGAAACACGGGC (((((.(....).))))) ? 62.9

What Tm value was documented for this sequence, GTTTAAGGAAACTTAAAC (((((((....))))))) ? 46.5

What Tm value was documented for this sequence, GCGAGGAGTCGC ((((....)))) ? 52.8

What Tm value was documented for this sequence, GCCAGACGAAAGTCCGGC (((.(((....))).))) ? 60.1

What Tm value was documented for this sequence, GATCAGTGTCTGATC ((((((...)))))) ? 50

What Tm value was documented for this sequence, GGCGGGGGAAACCCTGCC (((.(((....))).))) ? 65.2

What Tm value was documented for this sequence, GATCGCGAAAGCGCATC ((((((....))).))) ? 51.4

What Tm value was documented for this sequence, GATGCCGAAAGGCAAATC ((((((....)))..))) ? 35.4

What Tm value was documented for this sequence, GTACGTGGAAACGTGTAC ((((..(....)..)))) ? 37.4

What Tm value was documented for this sequence, GTCACGGAAACGTGAC ((((((....)))))) ? 69.2

What Tm value was documented for this sequence, GGGTCCCCGAAAGGGCCC (((..(((....)))))) ? 56

What Tm value was documented for this sequence, GATTCCGAAAGGAGTATC ((((((....)))..))) ? 27.1

What Tm value was documented for this sequence, GGTCGCGAAAGCGAACC ((((((....))).))) ? 67.3

What Tm value was documented for this sequence, GATCACCCTTGTGATC ((((((....)))))) ? 54.9

What Tm value was documented for this sequence, GATCGCCGAGCGATC ((((((...)))))) ? 67.3

What Tm value was documented for this sequence, GATCATCAATATGATC ((((((....)))))) ? 45

What Tm value was documented for this sequence, GCAAACGAAAGTTATGC ((((((....))).))) ? 38.4
